- assayed_system: Mitogen-activated protein kinase 14 (Homo sapiens)
- Sequence (Q16539 whole entry): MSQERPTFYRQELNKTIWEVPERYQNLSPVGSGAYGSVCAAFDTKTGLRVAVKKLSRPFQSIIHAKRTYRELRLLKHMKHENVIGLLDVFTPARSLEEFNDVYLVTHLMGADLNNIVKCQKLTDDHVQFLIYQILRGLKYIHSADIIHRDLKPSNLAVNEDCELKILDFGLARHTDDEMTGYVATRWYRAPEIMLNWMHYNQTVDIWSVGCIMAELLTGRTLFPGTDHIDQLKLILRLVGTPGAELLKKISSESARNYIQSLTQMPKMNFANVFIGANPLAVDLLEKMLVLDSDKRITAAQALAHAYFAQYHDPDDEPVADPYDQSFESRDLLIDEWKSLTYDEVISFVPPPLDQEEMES
- experimental_details: Inhibition of p38alpha assessed as inhibition of gamma-32p-ATP incorporation into biotin peptide substrate after 60 mins by scintillation counter
pIC50: −log10 of the molar value.
assay_metric: pIC50

Nc1cc(N(Cc2ccc(F)cc2)C(=O)c2ccc3ccccc3c2)ccn1: 5.29

(P) C[C@@H](Nc1cc(N(Cc2ccc(F)cc2)C(=O)c2ccc3ccccc3c2)ccn1)c1ccccc1
(Q) CC(C)Nc1cc(N(Cc2ccc(F)cc2)C(=O)c2ccc3ccccc3c2)ccn1
Exam item: Lab note: check whether P or Q has the lower measured pIC50. # answer = label of selected item
Marked response: P
